Task for the reader: assign each of the following molecules its reported Relative activity.
- Tested on: cholesterol esterase
- assay.details: Substrate specificity: relative activity of cholesterol esterase on cholesterol esters
- Type: biochemical, Pseudomonas fluorescens
- conditions.used: activity on cholesterol linoleate defined as 100; 37° C, 30 minutes, pH 7.5
Answer with a bare number; do not write a unit.

# lookup: CCCCC/C=C\C/C=C\CCCCCCCC(=O)O[C@H]1CC[C@@]2(C)C(=CC[C@H]3[C@@H]4CC[C@H]([C@H](C)CCCC(C)C)[C@@]4(C)CC[C@@H]32)C1 [Cholesterol linoleate] on cholesterol esterase, Relative activity = 100

# lookup: CCCCCCCC/C=C\CCCCCCCC(=O)O[C@H]1CC[C@@]2(C)C(=CC[C@H]3[C@@H]4CC[C@H]([C@H](C)CCCC(C)C)[C@@]4(C)CC[C@@H]32)C1 [Cholesterol oleate] on cholesterol esterase, Relative activity = 93

# lookup: CC(=O)O[C@H]1CC[C@@]2(C)C(=CC[C@H]3[C@@H]4CC[C@H]([C@H](C)CCCC(C)C)[C@@]4(C)CC[C@@H]32)C1 [Cholesterol acetate] on cholesterol esterase, Relative activity = 80

# lookup: CCCCCCCCCCCCCCCC(=O)O[C@H]1CC[C@@]2(C)C(=CC[C@H]3[C@@H]4CC[C@H]([C@H](C)CCCC(C)C)[C@@]4(C)CC[C@@H]32)C1 [Cholesterol palmitate] on cholesterol esterase, Relative activity = 26

# lookup: CCCCCCCCCCCCCCCCCC(=O)O[C@H]1CC[C@@]2(C)C(=CC[C@H]3[C@@H]4CC[C@H]([C@H](C)CCCC(C)C)[C@@]4(C)CC[C@@H]32)C1 [Cholesterol stearate] on cholesterol esterase, Relative activity = 58

The reported measurements were obtained from patent US4011138A.
